This collection of values is drawn from PubChem BioAssay (NCI).

Assay: NCI Yeast Anticancer Drug Screen. Data for the bub3 strain (AID 167)
Conditions: S. cerevisiae bub3 mutant strain, at 100.0 µM
Compounds without any hit were thinned out: in the full panel of roughly 79,000, 15% have a hit. Active and inactive are the calls of the source. No stated cut-off is given here; in the data, active means growth inhibition above about 70%; inactive means the rest.
Outcomes: true (1) = active, false (0) = inactive

| COMPOUND | LABEL |
| --- | --- |
| COc1ccc(/C=C/c2sc3ccccc3[n+]2CCCCI)cc1OC | true (1) |
| Cc1cc(C(C)(C)CC(C)(C)C)ccc1O | true (1) |
| COc1cc(/C=C2\NC(=O)N(/C=C3\C(=O)Oc4ccccc4C3=O)C2=O)ccc1O | true (1) |
| O/N=C\c1c(O)ccc2ccccc12 | false (0) |
| C=C1CCC(O)C/C1=C/C=C1\CCCC2(C)C1CCC2C(C)CCCC(C)C (centres undefined) | false (0) |
| CCOC1=C/C(=N\Nc2ccc([N+](=O)[O-])cc2)CCC1 | false (0) |
| c1ccc(CCN2CCc3ccccc3C2)cc1 | false (0) |
| N#CNC(N)=Nc1cc2ccccc2c2ccccc12 | true (1) |
| C/C(=N\Nc1ccc([N+](=O)[O-])cc1[N+](=O)[O-])c1sc(-n2nc(-c3ccccc3)cc2-c2ccccc2)nc1C | false (0) |

###

Listing of entries alongside the reported growth inhibition.
Assay: NCI Yeast Anticancer Drug Screen. Data for the sgs1 mgt1 strain (AID 161);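 further: 0% = growth of cultures given vehicle only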
Conditions: S. cerevisiae sgs1 mgt1 strain, at 5.0 µM (retest, dose inferred, filed as 0.5), hits give high values
This is part of a sample that, as a whole, favours compounds with a hit. Of some 79,000 tested, about 15% had one in any assay.
MEASURED_PROPERTY: growth inhibition (%)

| COMPOUND | MEASURED_PROPERTY | OBSERVED_RESULT |
| --- | --- | --- |
| S=c1sc2c(s1)SCCS2 | growth inhibition | -8 |
| O=C(O)c1cc2ccc(Cl)cc2c(O)c1C1=CCCCC1 | growth inhibition | 0 |
| O=C(c1ccc([N+](=O)[O-])cc1)C1N=NCC1c1ccccc1 (configuration not stated) | growth inhibition | 3 |
| O=C1N=C2SC=C(NC(=S)Nc3ccccc3)N2NC12c1ccccc1-c1ccccc12 | growth inhibition | -8 |
| O=C1c2cccnc2C(=O)C2C3C=CC(C3)C12 (configuration not stated) | growth inhibition | 56 |
| CC1=C(C(=O)NCc2ccccc2)C(c2ccccc2)C(C(=O)NCc2ccccc2)=C(C)N1 | growth inhibition | -1 |
| Cc1c(C(C)C)cc(OCCO)cc1C(C)C | growth inhibition | 0 |

###

Test: NCI Yeast Anticancer Drug Screen. Data for the mec2-1 strain (AID 157)
Settings: S. cerevisiae mec2-1 strain, at 1.2 µM, hits give high values
The panel holds about 79,000 compounds, 15% with a hit somewhere; the sample as a whole holds those more often.
MEASURED_PROPERTY: growth inhibition (%)

| COMPOUND | UNIT_OF_MEASUREMENT | OBSERVED_RESULT |
| --- | --- | --- |
| N#CC(C#N)=NNc1ccc(S(=O)(=O)O)cc1 | % | -20 |
| C/C(=N\Nc1ccc([N+](=O)[O-])cc1[N+](=O)[O-])c1sc(-n2nc(-c3ccccc3)cc2-c2ccccc2)nc1C | % | 11 |
| CC1SC2(C(=O)Nc3ccc(Cl)cc32)N(c2ccc(Cl)cc2)C1=O (stereo not given) | % | -3 |
| O=C(O)c1ccc(N2C(=O)C=CC2=O)cc1 | % | -7 |
| c1ccc(Cc2cc(-c3ccccc3)n[nH]2)cc1 | % | 2 |

###

Assay: NCI Yeast Anticancer Drug Screen. Data for the rad18 strain (AID 177)
Conditions: S. cerevisiae rad18 mutant growth inhibition; at 33.0 µM
About 79,000 compounds went through this panel and 15% of them were active in at least one assay; those are over-represented in the sample as a whole. Activity calls are given as the source filed them. No stated cut-off is given here; in the data, active means growth inhibition above about 70%; inactive means the rest.
Outcomes: t = active, f = inactive

| COMPOUND | LABEL |
| --- | --- |
| Cc1csc(=S)n1OC(=O)NC1CCCCC1 | t |
| COc1cc2cc3c4cc(OC)c(OC)cc4cc[n+]3c(C)c2cc1OC | f |
| COC(C(O)CO)C(O)C(O)C(=O)NNc1ccccc1 (configuration not stated) | t |
| CC1=CC(=C(c2ccc(N)cc2)c2ccc(N)cc2)C=CC1=N | f |
| O=Cc1ccc2c(c1)C(=O)c1ccccc1C2=O | f |
| O=C1N=C2SC=C(NC(=S)Nc3ccccc3)N2NC12c1ccccc1-c1ccccc12 | f |
| COc1ccc2[nH]cc([C@@H]3C4CCC(C4)[C@H]3NCc3cccc(CN[C@H]4C5CCC(C5)[C@@H]4c4c[nH]c5ccc(OC)cc45)c3)c2c1 | f |
| CCCCCCCCCCCC1=NCCO1 | f |
| O=C(NNc1ccccc1)c1ccc(Cl)c(Cl)c1 | f |
| Cc1ccc([N+]2=NC(c3ccccc3)=NN(c3ccccc3)C2)cc1 | t |
| O=C(CSC(=S)N1CCCCC1)Nc1nc2c(s1)CCCC2 | f |
| O=C1/C(=C/c2ccccc2)CCCC1CN1CCCCC1 (configuration not stated) | t |
| CN(C)CCNc1ccc2ncnc3c2c1C(=O)c1ccccc1-3 | f |
| CCCOC(=O)C(F)C(Br)C(=O)OCCC (configuration not stated) | t |
| Cc1cc2cc3cc(C)c(N)cc3nc2cc1N | f |
| CNCCCNc1c2ccccc2nc2cccc([N+](=O)[O-])c12 | t |
| COc1ccc(C(=O)c2ccccc2C(=O)c2ccccc2OC)cc1 | f |
| Cc1c(C(C)C)cc(OCCO)cc1C(C)C | f |
| Oc1[nH]c2ccccc2c1N=NC(=S)N1CCCCC1 | t |
| CN(C)c1ccc(N=Nc2ccncc2)cc1 | f |
| O=[N+]([O-])c1cc[n+]([O-])cc1 | f |
| COC(=O)Nc1cn2ccc(C(Cl)=C(Cl)Cl)cc2n1 | f |
| O=C(O)c1cc2ccc(Cl)cc2c(O)c1C1=CCCCC1 | f |
| Cc1cc(=O)oc2c(C)c3occc(=O)c3cc12 | f |
| Oc1ccc(O)c(Cc2ccccc2)c1 | t |
| CCN(CC)CCNc1ccc([N+](=O)[O-])c2nc3ccccc3c(N)c12 | f |
| OC(/C=C/c1ccccc1)(Cc1cc(-c2ccccc2)n[nH]1)c1ccccc1 (configuration not stated) | f |
| CCOC(=O)/C(=C\c1ccc(C#N)cc1)C(C)=O | t |
| O=[N+]([O-])c1cc(S(=O)(=O)Nc2ccccc2)ccc1Nc1ccccc1 | t |
| O=C(/C=C\c1cccc(C(F)(F)F)c1)c1ccccc1 | f |
| CCn1c(O)c(C=Nc2ccccc2)s/c1=N/Nc1nc(-c2ccccc2)cs1 | f |
| Cc1ccc2c(c1)C1(SC(C)C(=O)N1c1ccc(Cl)cc1)C(=O)N2 (configuration not stated) | t |

###

Assay: NCI Yeast Anticancer Drug Screen. Data for the mlh1 strain (AID 171);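 further: 0% = growth of vehicle-treated control cultures of the same strain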
Settings: S. cerevisiae mlh1 strain growth inhibition; at 1.2 µM; hits give high values
This is part of a sample that, as a whole, favours compounds with a hit. Of some 79,000 tested, about 15% had one in any assay.

| COMPOUND | growth inhibition / % |
| --- | --- |
| CCCCCCOC(=O)NCCOC(=O)Nc1ccccc1 | -1 |
| O=C(COC(=O)c1ccccc1)c1ccc(Br)cc1 | 12 |
| Oc1cccc2cc(Cl)cnc12 | -22 |
| Cc1c2ccnc(C(=O)NCCN(C)C)c2cc2c3cc(O)ccc3n(C)c12 | 4 |
| Cc1cccc[n+]1C1CCc2c(ccc3ccccc23)C1=O (stereo unspecified) | 2 |
| O=C1C(Br)=C(c2ccccc2)O/C1=C/C(=O)c1ccc(Br)cc1 | -2 |
| CC(=O)Nc1ccc2c(c1)-c1ccccc1C2=O | -2 |
| CC(C)c1ccc(NC(=S)NC(=O)c2ccccc2)cc1 | -11 |
| CC(/C=C/c1ccccc1)=N\NC(N)=S | 5 |
| O=[N+]([O-])c1cccc2nc3ccccc3c(NCCC[N+]3([O-])CCCCC3)c12 | 0 |
| Cc1ccc(NCCNCCO)c2c(=O)c3cc(O)ccc3sc12 | -20 |

###

Assay: NCI Yeast Anticancer Drug Screen. Data for the rad50 strain (AID 155);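 further: 0% = growth of vehicle-only cultures of the same strain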
Details: S. cerevisiae rad50 strain growth inhibition; at 11.0 µM; hits give high values
The panel holds about 79,000 compounds, 15% with a hit somewhere; the sample as a whole holds those more often.
Listing of entries alongside the reported growth inhibition.

| CHEM_SMILES | growth inhibition, % |
| --- | --- |
| S=C1SCN(C2CCCCC2)CN1C1CCCCC1 | -1 |
| Nc1n[n+]([O-])c2ccc(Cl)cc2[n+]1[O-] | 88 |
| c1ccc2c(c1)sc1c3cnccc3ccc21 | 64 |
